- MEASUREMENT NOTES: Pharmacokinetic analysis in blood plasma of cattle after single SC administration
- Format: in vivo
- CONDITIONS USED: bovine, plasma, sc, 10 mg/kg, cattle, SC 10 mg/kg 15% aqueous solution, 4 h after administration
REPORTED ENDPOINT: concentration at 4 h (ng/mL)
One number for each entry, in ng/mL.

# input Which concentration at 4 h value belongs to COCCNCc1ccc(C#Cc2ccc(C(=O)N[C@H](C(=O)NO)C(C)(C)N)cc2)cc1 ?
# output 363

###

- MEASUREMENT NOTES: Pharmacokinetic analysis in blood plasma of cattle after single SC administration
- Format: in vivo
- CONDITIONS USED: bovine, plasma, sc, 10 mg/kg, cattle, SC 10 mg/kg 17.5% oily suspension, 48 h after administration
REPORTED ENDPOINT: concentration at 48 h (ng/mL)
One number for each entry, in ng/mL.

# input Which concentration at 48 h value belongs to COCCNCc1ccc(C#Cc2ccc(C(=O)N[C@H](C(=O)NO)C(C)(C)N)cc2)cc1 ?
# output 13.2
